test system: Streptococcus salivarius; assay: growth AUC relative to DMSO control (median of replicates) (fraction); higher = more growth (less inhibition), active = hit call of the paper; details: 20 µM; 24 h
observed.property: growth AUC
Output spec: single numeric token, no unit.

Examples with answers:
| compound | target.or.system | measured.result |
| --- | --- | --- |
| C[Si](Cn1cncn1)(c1ccc(F)cc1)c1ccc(F)cc1 | Streptococcus salivarius | 0.988 |
| COP(=S)(OC)SCC(=O)N(c1ccc(Cl)cc1)C(C)C | Streptococcus salivarius | 0.992 |
| COC(=O)c1ccccc1S(=O)(=O)NC(=O)N(C)c1nc(C)nc(OC)n1 | Streptococcus salivarius | 1.01 |
| C=C/C=C/CC1=C(C)C(OC(=O)[C@@H]2C(/C=C(\C)C(=O)OC)C2(C)C)CC1=O.C=C/C=C/CC1=C(C)[C@@H](OC(=O)[C@@H]2C(C=C(C)C)C2(C)C)CC1=O (some centres undefined) | Streptococcus salivarius | 0.947 |
| Oc1ccccc1-c1ccccc1 | Streptococcus salivarius | 1.04 |
| C=C(C)CN(CC)c1c([N+](=O)[O-])cc(C(F)(F)F)cc1[N+](=O)[O-] | Streptococcus salivarius | 0.989 |
| COC(=O)c1ccccc1S(=O)(=O)NC(=O)Nc1nc(C)nc(OC)n1 | Streptococcus salivarius | 0.935 |
| CCC(C)c1cc([N+](=O)[O-])cc([N+](=O)[O-])c1O (centres undefined) | Streptococcus salivarius | 0.938 |

Entry `CN(C)C(CSC(N)=O)CSC(N)=O.Cl` : reported growth AUC = ?
1

* * *

tested on: Clostridium difficile; assay: growth AUC relative to DMSO control (median of replicates) (fraction); higher = more growth (less inhibition), active = hit call of the paper; details: 20 µM; 24 h
We use 1 as the dividing line for growth AUC: on or above the line is true (1), below is false (0).

Examples from the recorded data:
| compound | assigned.category |
| --- | --- |
| CC[C@H]1CCCC(O[C@H]2CC[C@H](N(C)C)[C@@H](C)O2)[C@@H](C)C(=O)C2=C[C@@H]3[C@@H](C=C(C)[C@@H]4C[C@@H](O[C@@H]5O[C@@H](C)[C@H](OC)[C@@H](OC)[C@H]5OC)C[C@@H]34)[C@@H]2CC(=O)O1.CC[C@H]1CCCC(O[C@H]2CC[C@H](N(C)C)[C@@H](C)O2)[C@@H](C)C(=O)C2=C[C@@H]3[C@@H](C=C[C@@H]4C[C@@H](O[C@@H]5O[C@@H](C)[C@H](OC)[C@@H](OC)[C@H]5OC)C[C@@H]34)[C@@H]2CC(=O)O1 (some centres not stated) | true (1) |
| C=CCOC(=O)C(C)(C)OC(=O)c1cc(-n2c(=O)cc(C(F)(F)F)n(C)c2=O)ccc1Cl | false (0) |
| Clc1ccc(Cl)c(Cl)c1 | false (0) |
| COc1cccc(C(=O)NN(C(=O)c2cc(C)cc(C)c2)C(C)(C)C)c1C | false (0) |

Note: attention shifts to another entry.
Is growth AUC at least 1? Consider `COP(=S)(OC)SCN1C(=O)c2ccccc2C1=O`
false (0)

* * *

tested on: Bifidobacterium longum subsp. longum; assay: growth AUC relative to DMSO control (median of replicates) (fraction); higher = more growth (less inhibition), active = hit call of the paper; conditions: 20 µM; 24 h
Class field: derived from growth AUC; ranges 0: < 0.9; 1: ≥ 0.9 and < 1; 2: ≥ 1

Assign a bin to `O=C(O)c1cc(Cl)ccc1Cl`
2

And the next one, CC(=O)CC(c1ccc(Cl)cc1)c1c(O)c2ccccc2oc1=O (stereo not given) ?
1

* * *

test system: Streptococcus salivarius; assay: growth AUC relative to DMSO control (median of replicates) (fraction); higher = more growth (less inhibition), active = hit call of the paper; conditions: 20 µM; 24 h
observed.property: growth AUC
Output spec: single numeric token, no unit.

Examples with answers:
| compound | observed.property | measured.result |
| --- | --- | --- |
| CC1(C)OC(c2ccco2)CN1C(=O)C(Cl)Cl (stereo not drawn) | growth AUC | 1.01 |
| O=C1OCC2C1C1(Cl)C(Cl)=C(Cl)C2(Cl)C1(Cl)Cl (stereo not drawn) | growth AUC | 0.986 |
| O=[N+]([O-])c1c(Cl)c(Cl)cc(Cl)c1Cl | growth AUC | 1 |
| CCOC(=O)N(C)C(=O)CSP(=S)(OCC)OCC | growth AUC | 1 |
| Cc1cc(Cl)ccc1OCC(=O)O | growth AUC | 0.983 |

Return growth AUC measured with Streptococcus salivarius given this compound: `CN1CSC(=S)N(C)C1`
0.983

And the next one, `Oc1cccc2cccnc12` ?
0.995

And the next one, `CN/C(=N\[N+](=O)[O-])NCc1cnc(Cl)s1` ?
1

And the next one, COP(=S)(OC)SC(CC(=O)O)C(=O)O (stereo not drawn) ?
1.03

And the next one, `Clc1nc(Cl)nc(Nc2ccccc2Cl)n1` ?
1.03

And the next one, COC(C)(C)CCCC(C)C/C=C/C(C)=C/C(=O)OC(C)C (stereo not drawn) ?
1.01

And the next one, `CCSCc1ccccc1OC(=O)NC` ?
1.02

And the next one, `CNc1nc(C)c(C)c(OC(=O)N(C)C)n1` ?
1.03

* * *

tested on: Coprococcus comes; test: growth AUC relative to DMSO control (median of replicates) (fraction); higher = more growth (less inhibition), active = hit call of the paper; settings: 20 µM; 24 h
# growth AUC annotations

Examples with answers:
| structure.notation | measured.result |
| --- | --- |
| O=c1ccc(=O)[nH][nH]1 | 0.996 (inactive) |
| CCC(C)(c1ccc(O)cc1)c1ccc(O)cc1 | 1.01 (inactive) |
| CCOP(=S)(OCC)Oc1ccc2c(C)c(Cl)c(=O)oc2c1 | 1 (inactive) |
| N#Cc1cc(Br)c(O)c(Br)c1 | 0.996 (inactive) |
| COP(=O)(OC)OC=C(Cl)Cl | 1.03 (inactive) |
| O=C(O)c1ccccc1C(=O)Nc1cccc2ccccc12 | 0.971 (inactive) |

Entry `CC(C)OC(=O)Nc1ccccc1` : reported growth AUC = ?
1.03 (inactive)

* * *

system: Akkermansia muciniphila; experiment: growth AUC relative to DMSO control (median of replicates) (fraction); higher = more growth (less inhibition), active = hit call of the paper; conditions: 20 µM; 24 h
Class field: derived from growth AUC; ranges lower bin = under 0.9, middle bin = from 0.9 up to 1, upper bin = 1 and over

Examples from the recorded data:
| compound | target.or.system | assigned.category |
| --- | --- | --- |
| CCC(C)c1cc([N+](=O)[O-])cc([N+](=O)[O-])c1O (stereo not drawn) | Akkermansia muciniphila | upper bin |
| COc1cc(OC)nc(Oc2cccc(Oc3nc(OC)cc(OC)n3)c2C(=O)[O-])n1.[Na+] | Akkermansia muciniphila | middle bin |
| CO/C=C(/C(=O)OC)c1ccccc1COc1cccc(C(F)(F)F)n1 | Akkermansia muciniphila | middle bin |
| C=CCC1=C(C)C(OC(=O)C2C(C=C(C)C)C2(C)C)CC1=O (mixture of isomers) | Akkermansia muciniphila | upper bin |
| COc1ccc(-c2ccccc2)cc1NNC(=O)OC(C)C | Akkermansia muciniphila | lower bin |

Assign a bin to `CCCCN(CC)C(=O)SCCC`
middle bin

And the next one, CC(Oc1ccc(Oc2ccc(Cl)cc2Cl)cc1)C(=O)O (racemic) ?
lower bin

And the next one, `O=C1C(Cl)=C(Cl)C(=O)C(Cl)=C1Cl` ?
upper bin

And the next one, `Clc1ccccc1-c1nnc(-c2ccccc2Cl)nn1` ?
lower bin

And the next one, `COP(=S)(OC)Oc1cc(Cl)c(I)cc1Cl` ?
upper bin

And the next one, ClC1=C(Cl)C2(Cl)[C@H]3[C@@H]4O[C@@H]4[C@H](Cl)[C@H]3C1(Cl)C2(Cl)Cl (single isomer, unassigned; isomer b) ?
upper bin

And the next one, `C=CCNC(=O)c1c([Si](C)(C)C)sc(C)c1C` ?
lower bin

And the next one, `CCCCCCCCCCCCC1=C(OC(C)=O)C(=O)c2ccccc2C1=O` ?
upper bin

And the next one, `CNc1cnn(-c2cccc(C(F)(F)F)c2)c(=O)c1Cl` ?
middle bin

And the next one, `CCCCCCCC(=O)Oc1c(I)cc(C#N)cc1I` ?
upper bin

And the next one, COP(=O)(OC)Oc1ccc(S(C)=O)c(C)c1 (stereo not drawn) ?
middle bin

And the next one, CCC(C)n1c(=O)[nH]c(C)c(Br)c1=O (stereo not drawn) ?
upper bin

And the next one, `COc1cc(OC)nc(NC(=O)[N-]S(=O)(=O)c2ncccc2OCC(F)(F)F)n1.[Na+]` ?
upper bin

And the next one, `CNC(=O)Oc1cccc2c1OC(C)(C)C2` ?
upper bin

And the next one, CCCN(CC)CC1COC2(CCC(C(C)(C)C)CC2)O1 (stereo not drawn) ?
lower bin

And the next one, `COP(=O)(OC)Oc1ccc(SC)c(C)c1` ?
lower bin

And the next one, `Cc1ccc2nc3sc(=O)sc3nc2c1` ?
upper bin

And the next one, CC(Cc1ccc(C(C)(C)C)cc1)CN1CCCCC1 (stereo not drawn) ?
lower bin

And the next one, CNC(=O)Oc1cccc2c1OC(C)(C)C2O (stereo not drawn) ?
upper bin

// provenance: the supplement of paper PMC12669032
